# target desc: AHR (Mus musculus, UniProt P30561)
# assay text: In vitro assay 3: antagonism in mouse cell line (AHR transactivation, firefly luciferase reporter, kynurenic acid prestimulated)
# Format: cell-based
# experimental setup: read-out: AHR Antagonism Mouse IC50, mouse Hepa 1c1c7 cells, 200 μM kynurenic acid, 20 hours
Measured IC50 values are reported for all entries that follow.
property name: IC50 (nM)

1) CS(=N)(=O)c1ccccc1-c1nc2c3ccccc3nc(N[C@@H]3CCCCNC3=O)n2n1 (single isomer, unassigned) [Example 662]
70.4
2) Cn1cc(-c2nc3c4cc(F)ccc4nc(N[C@@H]4CCCCNC4=O)n3n2)cn1
3.88
3) N#Cc1cccc2c1nc(N[C@@H]1CCCCNC1=O)n1nc(-c3cnn(C4CCC4)c3)nc21
7.01
4) O=C1NCCCC[C@H]1Nc1nc2ccccc2c2nc(-c3nc(CCO)no3)nn12
178

###

# target desc: AHR (Mus musculus, UniProt P30561)
# assay text: In vitro assay 3: antagonism in mouse cell line (AHR transactivation, firefly luciferase reporter, kynurenic acid prestimulated)
# Type: cell-based
# experimental setup: mouse Hepa 1c1c7 cells, 200 μM kynurenic acid, 20 hours, read-out: AHR Antagonism Mouse IC50
Assign labels as follows, please: Fulfilled for IC50 below 40 nM; Not fulfilled for IC50 equal to or exceeding 40 nM.

1. O=C1NCCCC[C@H]1Nc1nc2c(Br)cccc2c2nc(-c3ccc(Cl)cc3OC(F)(F)F)nn12
Fulfilled
2. COc1cccc(-c2nc3c4ccccc4nc(N[C@@H](C(N)=O)c4ccccc4)n3n2)c1
Fulfilled
3. Cn1ccc(-c2nc3c4ccccc4nc(N[C@@H]4CCCCNC4=O)n3n2)n1
Not fulfilled
4. CCNC(=O)[C@@H](C)Nc1nc2ccccc2c2nc(-c3cccc(OC)c3)nn12
Fulfilled
5. COc1cscc1-c1nc2c3ccccc3nc(N[C@@H]3CCCCNC3=O)n2n1
Fulfilled
6. CC(C)n1cc(-c2nc3c4ccccc4nc(N[C@@H]4CCCCNC4=O)n3n2)cn1
Fulfilled
7. COc1ccc(-c2nc3c4ccc(C(F)(F)F)cc4nc(N[C@@H]4CNCCNC4=O)n3n2)cc1
Not fulfilled
8. CCCCNC(=O)[C@H](C)Nc1nc2ccccc2c2nc(-c3ccc(Cl)cc3OC(F)(F)F)nn12
Fulfilled
9. O=C1NCCCC[C@H]1Nc1nc2ccccc2c2nc(-c3nc(C(F)(F)F)no3)nn12
Fulfilled
10. CC(C)c1cccc2c1nc(N[C@@H]1CCCCNC1=O)n1nc(-c3cccc(F)c3)nc21
Fulfilled
11. COc1ccc(-c2nc3c4ccccc4nc(NC4CNCCNC4=O)n3n2)cc1 (single isomer, unassigned) [Example 36]
Fulfilled
12. COc1cccc(-c2nc3c4cc(F)ccc4nc(NC4CCCNC4=O)n3n2)c1 (single isomer, unassigned) [Example 188]
Not fulfilled
13. O=C1NCCCC[C@@H]1Nc1nc2ccccc2c2nc(-c3ccsc3)nn12
Fulfilled
14. COc1ccc(-c2nc3c4ccccc4nc(N[C@@H]4CCNC4=O)n3n2)cc1
Not fulfilled
15. O=C1NCCCC[C@H]1Nc1nc2ccccc2c2nc(-c3cc(Br)ccc3OC(F)(F)F)nn12
Not fulfilled

###

# target desc: AHR (Mus musculus, UniProt P30561)
# Sequence (P30561 1-848 P471L/N533S/M589L): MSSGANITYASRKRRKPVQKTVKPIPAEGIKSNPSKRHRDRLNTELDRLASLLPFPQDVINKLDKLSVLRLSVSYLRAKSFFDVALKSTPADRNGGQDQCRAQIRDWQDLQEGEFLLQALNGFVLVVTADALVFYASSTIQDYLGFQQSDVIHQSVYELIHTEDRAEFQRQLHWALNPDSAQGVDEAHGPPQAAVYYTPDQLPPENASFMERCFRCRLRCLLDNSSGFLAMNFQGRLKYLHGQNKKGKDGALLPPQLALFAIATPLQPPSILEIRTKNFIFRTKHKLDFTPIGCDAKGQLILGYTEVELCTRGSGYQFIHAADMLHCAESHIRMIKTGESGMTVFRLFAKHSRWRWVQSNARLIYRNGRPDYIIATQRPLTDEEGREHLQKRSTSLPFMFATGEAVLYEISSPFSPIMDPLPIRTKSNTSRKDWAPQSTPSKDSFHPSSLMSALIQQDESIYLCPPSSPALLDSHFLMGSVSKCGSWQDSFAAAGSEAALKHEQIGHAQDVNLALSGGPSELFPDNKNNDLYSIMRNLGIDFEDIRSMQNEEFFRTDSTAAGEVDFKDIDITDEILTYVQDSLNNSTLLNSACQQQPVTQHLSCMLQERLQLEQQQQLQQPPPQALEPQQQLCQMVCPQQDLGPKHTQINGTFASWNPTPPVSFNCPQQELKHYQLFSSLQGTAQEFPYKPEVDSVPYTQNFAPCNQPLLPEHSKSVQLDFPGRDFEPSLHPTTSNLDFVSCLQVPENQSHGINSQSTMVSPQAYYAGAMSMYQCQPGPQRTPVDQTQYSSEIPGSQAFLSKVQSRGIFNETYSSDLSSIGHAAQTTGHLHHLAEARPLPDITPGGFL
# assay text: In vitro assay 3: antagonism in mouse cell line (AHR transactivation, firefly luciferase reporter, kynurenic acid prestimulated)
# Assay type: cell-based
# experimental setup: mouse Hepa 1c1c7 cells, 200 μM kynurenic acid, 20 hours, read-out: AHR Antagonism Mouse IC50
pIC50: −log10 of the molar value.
Rule: pIC50 under 8 gives not satisfied, otherwise satisfied.

1) COc1ccc(-c2nc3c4ccccc4nc(NC4CCCNC4=O)n3n2)cc1 (single isomer, unassigned) [Example 38]
not satisfied
2) Cn1cc(-c2nc3c4c(Br)cccc4nc(N[C@@H]4CCCCNC4=O)n3n2)cn1
not satisfied
3) O=C1NCCNC[C@H]1Nc1nc2ccccc2c2nc(-c3cn[nH]c3)nn12
not satisfied
4) COc1ccc(-c2nc3c4c(Br)cccc4nc(N[C@@H]4CNCCNC4=O)n3n2)cc1 (stereo in doubt)
not satisfied
5) N#Cc1cccc2nc(N[C@@H]3CCCCNC3=O)n3nc(-c4ccc(F)cc4)nc3c12
satisfied
6) N#Cc1ccccc1-c1nc2c3ccccc3nc(N[C@@H]3CCCCNC3=O)n2n1
satisfied
7) COc1ccc(-c2nc3c4cc(Cl)ccc4nc(N[C@@H]4CCCCNC4=O)n3n2)cc1
satisfied

###

# target desc: AHR (Homo sapiens, UniProt P35869)
# Construct: U87 MG glioblastoma cells (ATCC #HTB-14) endogenously expressing AHR; endogenous in cells; host or cells: U87 MG glioblastoma cells (ATCC #HTB-14)
# Sequence (P35869 11-848): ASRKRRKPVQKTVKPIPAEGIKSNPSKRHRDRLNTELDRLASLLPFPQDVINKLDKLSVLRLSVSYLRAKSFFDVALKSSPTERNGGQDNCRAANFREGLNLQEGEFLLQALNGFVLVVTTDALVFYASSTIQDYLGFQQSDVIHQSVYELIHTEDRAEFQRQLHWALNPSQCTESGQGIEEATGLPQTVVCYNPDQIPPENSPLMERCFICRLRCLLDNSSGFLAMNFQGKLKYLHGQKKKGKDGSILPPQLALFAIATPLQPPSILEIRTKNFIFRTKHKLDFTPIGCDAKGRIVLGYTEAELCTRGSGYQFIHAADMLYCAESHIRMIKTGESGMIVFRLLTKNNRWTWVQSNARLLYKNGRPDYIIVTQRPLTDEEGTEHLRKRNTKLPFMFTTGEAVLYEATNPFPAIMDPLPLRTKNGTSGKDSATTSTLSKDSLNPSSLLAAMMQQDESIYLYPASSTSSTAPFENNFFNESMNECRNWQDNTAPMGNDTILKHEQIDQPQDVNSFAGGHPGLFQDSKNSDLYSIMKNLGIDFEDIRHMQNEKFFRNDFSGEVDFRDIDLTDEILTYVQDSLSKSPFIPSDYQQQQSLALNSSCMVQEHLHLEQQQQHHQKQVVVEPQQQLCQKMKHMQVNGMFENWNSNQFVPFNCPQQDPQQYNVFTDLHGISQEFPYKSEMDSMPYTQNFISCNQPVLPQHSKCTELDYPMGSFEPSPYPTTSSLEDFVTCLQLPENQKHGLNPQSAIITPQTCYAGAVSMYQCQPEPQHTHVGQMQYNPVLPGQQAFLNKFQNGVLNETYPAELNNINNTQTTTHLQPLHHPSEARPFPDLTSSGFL
# assay text: In vitro assay 1: antagonism in human cell line (AHR transactivation, firefly luciferase reporter, kynurenic acid prestimulated)
# Assay type: cell-based
# experimental setup: AHR Antagonism Human IC50 [M]
property name: IC50 (M)

1. O=C1NCCNC[C@H]1Nc1nc2ccccc2c2nc(-c3ccccc3OC(F)(F)F)nn12 [Example 720]
1.45e-07
2. CC[C@@H](Nc1nc2ccccc2c2nc(-c3cnccc3C(F)(F)F)nn12)C(N)=O [Example 491]
9.72e-08
3. CC(C)c1cccc2c1nc(N[C@@H]1CCCCNC1=O)n1nc(-c3cnn(C)c3)nc21 [Example 588]
1.84e-08
4. COc1ccc(-c2nc3c4cccc(Br)c4nc(N[C@H](C)C(=O)N4CCOCC4)n3n2)cc1 [Example 773]
8.57e-10
5. CCC[C@@H](Nc1nc2ccccc2c2nc(-c3cc(F)ccc3OC(F)(F)F)nn12)C(=O)NC [Example 494]
2.28e-07
6. COc1ccc(-c2nc3c4cccc(C5(C(F)(F)F)CC5)c4nc(N[C@@H]4CCCCNC4=O)n3n2)cc1 [Example 398]
2.24e-08
7. O=C1NCCCC[C@H]1Nc1nc2ccccc2c2nc(-c3cccnc3)nn12 [Example 125]
5.68e-10
8. Cc1ccccc1-c1nc2c3ccccc3nc(NC3CCCNC3=O)n2n1 (single isomer, unassigned) [Example 49]
8.5e-08
9. COc1cccc2c1nc(N[C@@H]1CCCCNC1=O)n1nc(-c3cn[nH]c3)nc21 [Example 755]
9.19e-06
10. CC(C)[C@@H](Nc1nc2c(Br)cccc2c2nc(-c3cnn(C)c3)nn12)C(N)=O [Example 578]
1.25e-08
11. COc1ccc(-c2nc3c4cccc(F)c4nc(N[C@@H]4CCCCNC4=O)n3n2)cc1 [Example 138]
7.41e-10
12. O=C1NCCCC[C@H]1Nc1nc2c(Br)cccc2c2nc(-c3ccccc3OC(F)(F)F)nn12 [Example 208]
1.34e-06
13. O=C1NCCCC[C@H]1Nc1nc2ccccc2c2nc(-c3ccnc(F)c3)nn12 [Example 638]
4e-09
14. O=C1NCCCC[C@H]1Nc1nc2c(C(F)(F)F)cccc2c2nc(-c3cnn(C4CCC4)c3)nn12 [Example 741]
7.02e-10
